Field: ASMS ratio (%). Provide a value for each of the molecules that follow.
molecular target: Bcl-2 protein (Recombinant Human Bcl-2 Protein) (Homo sapiens, UniProt P10415); construct: purchased Novus NBP2-34889; assay: Binding evaluation of mixture library compounds to Bcl-2 using AS-MS (affinity selection mass spectrometry); conditions: n = 1
Sequence (P10415 whole entry): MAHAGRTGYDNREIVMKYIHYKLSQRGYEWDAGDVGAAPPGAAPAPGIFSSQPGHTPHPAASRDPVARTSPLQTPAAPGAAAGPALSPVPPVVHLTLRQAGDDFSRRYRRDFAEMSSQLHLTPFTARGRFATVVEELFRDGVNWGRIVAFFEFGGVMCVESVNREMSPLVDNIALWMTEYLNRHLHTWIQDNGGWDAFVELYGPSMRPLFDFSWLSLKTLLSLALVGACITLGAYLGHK
Give bare numbers, in %.

Sample records with ASMS ratio (%):
> print(dat)
                      smiles.representation                             target.system  measured.parameter  data.value
1  CCOc1cncc(C#Cc2ccccc2C(=O)N2CCN(c3ccc(C(=O)NS(=O)(=O)CCC(F)(F)F)nn3)CC2)c1  Bcl-2 protein (Recombinant Human Bcl-2 Protein) (Homo sapiens, UniProt P10415)      ASMS ratio (%)         0.0
2  CCOc1cncc(-c2csc(C(=O)N3CCN(c4ccc(C(=O)NS(=O)(=O)c5ccc(NCCSc6ccccc6)c(C(F)(F)F)c5)nn4)CC3)c2)c1  Bcl-2 protein (Recombinant Human Bcl-2 Protein) (Homo sapiens, UniProt P10415)      ASMS ratio (%)         0.0

### Prompt Look at this molecule and give its reported ASMS ratio (%). CCOc1cncc(-c2cc(CN3CCN(c4ccc(C(=O)NS(=O)(=O)CCC(F)(F)F)nn4)CC3)cc(OC(F)(F)F)c2)c1
### Response 0.0

* * *

molecular target: Bcl-2 protein (Recombinant Human Bcl-2 Protein) (Homo sapiens); construct: purchased Novus NBP2-34889; experiment: Binding evaluation of mixture library compounds to Bcl-2 using AS-MS (affinity selection mass spectrometry); details: AS-MS, mixture of 1200 compounds, Bcl-2; ASMS Ratio(%)=(A−C)/B×100; replicate n = 1
Measured Parameter: ASMS ratio (%) n = 1
Give bare numbers, in %.

Sample records with ASMS ratio (%) n = 1:
> print(dat)
                      smiles.representation  data.value
1  CCOc1cncc(-c2ccc(C(=O)N3CCN(c4ccc(C(=O)NCC56CC7CC(CC(C7)C5)C6)nn4)CC3)c3ccccc23)c1         8.1
2  CCOc1cccc(-c2ccc(C(=O)N3CCN(c4ccc(C(=O)NCC(F)(F)F)cc4)CC3)cc2F)c1        −0.8
3  CCOc1cccc(-c2ccc(CN3CCN(c4ccc(C(=O)NCC(F)(F)F)nn4)CC3)c(OC)c2)c1         2.2
4  CCOc1cncc(-c2ccc(CN3CCN(c4ccc(C(=O)NCC(F)(F)F)cc4)CC3)c3ccccc23)c1         1.8
5  CCOc1cccc(-c2cc(CN3CCN(c4ccc(C(=O)NCC56CC7CC(CC(C7)C5)C6)cc4)CC3)cc(OC(C)C)c2)c1         0.0
6  CCOc1cncc(-c2ccc(C(=O)N3CCN(c4ccc(C(=O)NCC(F)(F)F)cc4)CC3)cc2C)c1         4.2

As a next step, examine the compound that follows.
### Prompt Look at this compound and give its reported ASMS ratio (%) n = 1. CCOc1cccc(-c2ccc(CN3CCN(c4ccc(C(=O)NCC(F)(F)F)cc4)CC3)c(CC)c2)c1
### Response −3.3

* * *

target: Bcl-2 protein (Recombinant Human Bcl-2 Protein) (Homo sapiens); construct: purchased Novus NBP2-34889; experiment: Binding evaluation of mixture library compounds to Bcl-2 using AS-MS (affinity selection mass spectrometry); details: AS-MS, mixture of 1200 compounds, Bcl-2; ASMS Ratio(%)=(A−C)/B×100; replicate n = 2
Measured Parameter: ASMS ratio (%) n = 2
Give bare numbers, in %.

Sample records with ASMS ratio (%) n = 2:
> print(dat)
                                   compound                             target.system  data.value
1  CCOc1cccc(-c2ccccc2CCC(=O)N2CCN(c3ccc(C(=O)NCC(F)(F)F)cc3)CC2)c1 [B1K033-01]  Bcl-2 protein (Recombinant Human Bcl-2 Protein) (Homo sapiens)        −0.6
2  CCOc1cccc(-c2ccc(C(=O)N3CCN(c4ccc(C(=O)NCC56CC7CC(CC(C7)C5)C6)cc4)CC3)c3ccccc23)c1 [B1A035-01]  Bcl-2 protein (Recombinant Human Bcl-2 Protein) (Homo sapiens)        −7.0
3  CCOc1cccc(-c2ccc(CN3CCN(c4ccc(C(=O)NCC56CC7CC(CC(C7)C5)C6)nn4)CC3)c(CC)c2)c1 [B1A075-01]  Bcl-2 protein (Recombinant Human Bcl-2 Protein) (Homo sapiens)        28.6

As a next step, examine the compound that follows.
### Prompt Look at this compound and give its reported ASMS ratio (%) n = 2. CCOc1cncc(-c2ccc(CN3CCN(c4ccc(C(=O)NCC56CC7CC(CC(C7)C5)C6)nn4)CC3)c(OC)c2)c1 [B1A080-01]
### Response 0.0

* * *

Target: Bcl-2 protein (Recombinant Human Bcl-2 Protein) (Homo sapiens, UniProt P10415)
Construct: purchased Novus NBP2-34889
Test: Binding evaluation of mixture library compounds to Bcl-2 using AS-MS (affinity selection mass spectrometry)
Settings: AS-MS on the mixture of 1200 library compounds; ASMS Ratio(%)=(A−C)/B×100; replicate n = 1
Description: […] Then, analysis of the 1200 compounds was carried out for samples A, B, and C with TraceFinder 5.1 (Thermo Fisher Scientific) and CHANCE Software (in-house), and the ASMS Ratio (%) was calculated according to the following calculation formula. […]
Measured Parameter: ASMS ratio (%) n = 1
One number for each entry, in %.

Sample records with ASMS ratio (%) n = 1:
> print(dat)
                      smiles.representation                             target.system  measurement.unit  data.value
1  CCOc1cccc(-c2ccccc2CN2CCN(c3ccc(C(=O)N(C)CC45CC6CC(CC(C6)C4)C5)cc3)CC2)c1  Bcl-2 protein (Recombinant Human Bcl-2 Protein) (Homo sapiens, UniProt P10415)                 %         3.2
2  CCOc1cccc(-c2ccc(C(=O)N3CCN(c4ccc(C(=O)N(C)CC56CC7CC(CC(C7)C5)C6)nn4)CC3)c3ccccc23)c1  Bcl-2 protein (Recombinant Human Bcl-2 Protein) (Homo sapiens, UniProt P10415)                 %        10.2
3  CCOc1cccc(-c2cc(C(=O)N3CCN(c4ccc(C(=O)Nc5ccc(OC)cc5)cc4)CC3)cc(C(C)(C)C)c2)c1  Bcl-2 protein (Recombinant Human Bcl-2 Protein) (Homo sapiens, UniProt P10415)                 %         4.7

Go through the list and state ASMS ratio (%) n = 1 for each entry.
1. CCOc1cccc(-c2cc(CN3CCN(c4ccc(C(=O)N(C)CC56CC7CC(CC(C7)C5)C6)nn4)CC3)cc(OCC)c2)c1
2. CCOc1cccc(-c2cc(CN3CCN(c4ccc(C(=O)N(CC)CC)cc4)CC3)cc(OC(C)C)c2)c1

### Response
1. 13.4
2. 5.3

Go through the list and state ASMS ratio (%) n = 1 for each entry.
1. CCOc1cccc(-c2ccccc2CCC(=O)N2CCN(c3ccc(C(=O)Nc4ccc(OC)cc4)nn3)CC2)c1
2. CCOc1cccc(-c2ccc(CN3CCN(c4ccc(C(=O)Nc5ccc(OC)cc5)nn4)CC3)c3ccccc23)c1

### Response
0.0
4.5

* * *

target: Bcl-2 protein (Recombinant Human Bcl-2 Protein) (Homo sapiens); construct: purchased Novus NBP2-34889; assay: Binding evaluation of mixture library compounds to Bcl-2 using AS-MS (affinity selection mass spectrometry); conditions: AS-MS on the mixture of 1200 library compounds; ASMS Ratio(%)=(A−C)/B×100; replicate n = 2
Measured Parameter: ASMS ratio (%) n = 2
Numbers only, in %.

> print(dat)
                                   molecule  data.value
1  CCOc1cccc(-c2cc(CN3CCN(c4ccc(C(=O)Nc5ccc(OC)cc5)nn4)CC3)cc(OC(C)C)c2)c1         1.0
2  CCOc1cncc(-c2ccc(C(C)N3CCN(c4ccc(C(=O)Nc5ccc(OC)cc5)cc4)CC3)cc2)c1 (stereo not drawn)        −0.2
3  CCOc1cccc(-c2cc(CN3CCN(c4ccc(C(=O)N(CC)CC)cc4)CC3)cc(OCC)c2)c1         1.4

Go through the list and state ASMS ratio (%) n = 2 for each entry.
1. CCOc1cncc(C#Cc2ccccc2C(=O)N2CCN(c3ccc(C(=O)Nc4ccc(OC)cc4)cc3)CC2)c1
2. CCOc1cncc(-c2ccccc2CCC(=O)N2CCN(c3ccc(C(=O)Nc4ccc(OC)cc4)cc3)CC2)c1
3. CCOc1cncc(-c2csc(C(=O)N3CCN(c4ccc(C(=O)Nc5ccc(OC)cc5)nn4)CC3)c2)c1
4. CCOc1cncc(C#Cc2ccccc2C(=O)N2CCN(c3ccc(C(=O)N(CC)CC)cc3)CC2)c1
5. CCOc1cncc(-c2cc(CN3CCN(c4ccc(C(=O)N(CC)CC)cc4)CC3)cc(OC(C)C)c2)c1
6. CCOc1cccc(C#Cc2cc(C(=O)N3CCN(c4ccc(C(=O)N(CC)CC)nn4)CC3)cc(C(F)(F)F)c2)c1
7. CCOc1cccc(-c2cc(C(=O)N3CCN(c4ccc(C(=O)Nc5ccc(OC)cc5)cc4)CC3)cc(C(F)(F)F)c2)c1
8. CCOc1cncc(-c2ccc(C(=O)N3CCN(c4ccc(C(=O)N(C)CC56CC7CC(CC(C7)C5)C6)nn4)CC3)cc2C)c1

### Response
1. −2.0
2. 0.2
3. 2.6
4. 0.8
5. 0.5
6. −2.1
7. 0.2
8. −0.5

Go through the list and state ASMS ratio (%) n = 2 for each entry.
1. CCOc1cccc(-c2ccc(CN3CCN(c4ccc(C(=O)N(C)CC56CC7CC(CC(C7)C5)C6)cc4)CC3)c(OC)c2)c1
2. CCOc1cncc(-c2ccc(C(C)N3CCN(c4ccc(C(=O)Nc5ccc(OC)cc5)cc4)CC3)c(F)c2)c1 (stereo not drawn)
3. CCOc1cncc(-c2csc(CN3CCN(c4ccc(C(=O)Nc5ccc(OC)cc5)cc4)CC3)c2)c1

### Response
1: 9.9; 2: 11.1; 3: −1.1

### Prompt Look at this molecule and give its reported ASMS ratio (%) n = 2. CCOc1cncc(-c2ccccc2CCC(=O)N2CCN(c3ccc(C(=O)Nc4ccc(OC)cc4)nn3)CC2)c1
### Response −0.9
